# TARGET_UNDER_TEST: ganglionic receptors (ganglionic-type nicotinic receptors) (Rattus norvegicus, UniProt P04757+P12392)
# Construct: endogenous in cells; host or cells: cell preparations derived from the adrenal gland
# Sequence (P04757 26-499): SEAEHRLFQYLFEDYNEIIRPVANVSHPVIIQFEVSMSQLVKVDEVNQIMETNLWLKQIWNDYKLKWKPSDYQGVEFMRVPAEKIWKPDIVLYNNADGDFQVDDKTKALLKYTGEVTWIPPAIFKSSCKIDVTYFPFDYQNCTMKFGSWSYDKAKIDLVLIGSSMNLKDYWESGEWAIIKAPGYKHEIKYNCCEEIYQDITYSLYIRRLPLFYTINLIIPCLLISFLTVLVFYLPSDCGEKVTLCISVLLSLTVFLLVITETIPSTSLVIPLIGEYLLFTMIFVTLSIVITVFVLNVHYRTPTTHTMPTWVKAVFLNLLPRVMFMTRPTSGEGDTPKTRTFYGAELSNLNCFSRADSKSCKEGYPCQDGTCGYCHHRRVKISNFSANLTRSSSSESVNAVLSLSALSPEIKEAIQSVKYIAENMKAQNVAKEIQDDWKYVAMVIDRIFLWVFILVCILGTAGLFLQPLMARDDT
# Sequence (P12392 21-495): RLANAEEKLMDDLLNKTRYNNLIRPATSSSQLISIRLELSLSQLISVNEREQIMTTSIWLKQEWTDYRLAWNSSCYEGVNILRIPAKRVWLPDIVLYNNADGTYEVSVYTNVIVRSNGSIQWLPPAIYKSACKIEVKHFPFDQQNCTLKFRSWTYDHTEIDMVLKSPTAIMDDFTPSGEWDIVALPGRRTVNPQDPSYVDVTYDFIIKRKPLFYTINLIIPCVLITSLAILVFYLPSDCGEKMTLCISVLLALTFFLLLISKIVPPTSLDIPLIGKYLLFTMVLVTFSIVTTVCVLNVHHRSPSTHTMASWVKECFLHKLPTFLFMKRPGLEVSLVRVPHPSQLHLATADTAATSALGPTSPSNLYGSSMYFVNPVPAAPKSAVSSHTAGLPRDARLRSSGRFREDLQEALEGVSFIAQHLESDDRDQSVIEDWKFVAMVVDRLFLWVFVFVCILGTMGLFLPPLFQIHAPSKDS
# PROTOCOL_SUMMARY: Determination of interaction with ganglia
# Format: cell-based
# RUN_CONDITIONS: maximal activation (Emax) as percentage of maximal activation induced by (S)-(-)-nicotine
TEST_READOUT: Ganglion Effect (% nicotine)

NCC/C=C/c1cccnc1.O=C(O)/C=C/C(=O)O.O=C(O)/C=C/C(=O)O    23
CNCC/C=C/c1cncc(N)c1    4
NCC/C=C/c1cncc(Br)c1    11
CNCC/C=C/c1cncc(COC)c1    0
CNCC/C=C/c1cncc(-c2ccccc2)c1    0
CN1CCC[C@H]1c1cccnc1 [Sample No. C-1, (S)-(−)-nicotine, reference compound]    100
CNCC/C=C/c1cncc(OCc2ccccc2)c1    0
